# STUDY_TARGET: Heat shock factor protein 1 (Mus musculus, UniProt P38532)
# Sequence (P38532 whole entry): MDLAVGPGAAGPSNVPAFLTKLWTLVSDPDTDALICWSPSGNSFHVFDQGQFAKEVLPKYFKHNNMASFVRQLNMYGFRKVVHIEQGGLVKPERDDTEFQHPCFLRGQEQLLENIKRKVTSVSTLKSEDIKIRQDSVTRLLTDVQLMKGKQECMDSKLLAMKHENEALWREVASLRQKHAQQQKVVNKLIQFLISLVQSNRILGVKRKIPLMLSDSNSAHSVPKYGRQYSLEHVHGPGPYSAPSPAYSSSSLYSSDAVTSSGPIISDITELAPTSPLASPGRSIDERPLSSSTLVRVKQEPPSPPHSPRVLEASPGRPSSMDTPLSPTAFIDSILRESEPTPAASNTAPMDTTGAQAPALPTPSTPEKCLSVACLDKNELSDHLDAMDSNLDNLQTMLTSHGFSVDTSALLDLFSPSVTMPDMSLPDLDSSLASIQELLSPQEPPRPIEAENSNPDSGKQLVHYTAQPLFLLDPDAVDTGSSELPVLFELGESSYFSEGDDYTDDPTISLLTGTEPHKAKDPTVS
# ASSAY_NAME: HSF1 potentiators in luciferase reporter cells, confirmation, cell-based, NIH3T3, luminescence, dose retest (AID 435004);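 note: stress induced by proteasome inhibitor MG132 added 30 min after compound; luciferase reporter driven by HSF1 response element in NIH3T3 cells; actives raise luminescence as potentiators of the MG132 stress response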
# Type: functional
Active and inactive are the calls of the source. Cut-off read from the data, not from the text of the source: actives have a measured EC50 and inactives only a lower limit.
The reply should name one outcome from active, inactive

MOLECULE	STUDY_TARGET	GROUP_LABEL
O=C(NC1CCCN(Cc2ccccc2F)C1)c1cccs1 (stereo unspecified)	Heat shock factor protein 1 (Mus musculus, UniProt P38532)	inactive
Cc1cc(C)c(S(=O)(=O)n2ccc(-c3ccc(OCCN(C)c4ccccn4)cc3)n2)c(C)c1	Heat shock factor protein 1 (Mus musculus, UniProt P38532)	inactive
CCOC(=O)c1sc2c(c1C)C(c1cccs1)C1=C(O)CCCC1=N2 (stereo unspecified)	Heat shock factor protein 1 (Mus musculus, UniProt P38532)	active

INPUT: Lab log entry: Cc1ccn2c(C(=O)N/N=C\c3ccccc3[N+](=O)[O-])c(C)nc2c1 — outcome as called in the assay?
OUTPUT: inactive

INPUT: Given Cc1ccccc1CC(=O)NC1CCCc2ccccc21 (stereo unspecified) , state the outcome it received in this test.
OUTPUT: inactive

INPUT: State the result this test recorded for CCOc1ccc(N2CC(=O)C(c3nc(O)c4ccccc4n3)=C2N)cc1 .
OUTPUT: inactive

INPUT: Could you check what this test reported for CCOC(=O)c1cc(C#N)c(SCc2ccc(C#N)cc2)nc1C ?
OUTPUT: active

INPUT: Write down the call the test reported for this molecule. Item: COc1cc2[nH]c(=S)n(Cc3ccco3)c(=O)c2cc1OC
OUTPUT: inactive

INPUT: What classification did COc1cc(C2CC(c3cccnc3)=NN2c2ccc(F)cc2)cc(OC)c1OC (stereo unspecified) end up with in this test?
OUTPUT: active

INPUT: For CCOC(=O)c1ccc(N2C(=O)CC(N3CCC(Nc4ccc(F)cc4)CC3)C2=O)cc1 (stereo unspecified) , which call appears in the assay record?
OUTPUT: inactive
